Measurement Name: pKd
Please express pKd as -log10 of the molar concentration.

Lab request: please report pKd under test system B2AR 93–100 peptide (β-2-adrenergic receptor) (Homo sapiens) for C=CCN1CC[C@]23c4c5ccc(O)c4O[C@H]2C(=O)CC[C@@]3(O)[C@H]1C5 [Nalox, naloxone] 5.30

API: value(readout=pKd, system=B2AR 93–100 peptide (β-2-adrenergic receptor) (Homo sapiens)) for record Cc1cc2nc3c(=O)[nH]c(=O)nc-3n(C[C@H](O)[C@H](O)[C@H](O)CO)c2cc1C [RIBO, riboflavin] 3.40

----------
Assayed System: intact, purified human mu opioid receptor (muOPR) (Homo sapiens, UniProt P35372)
Sequence (P35372 whole entry): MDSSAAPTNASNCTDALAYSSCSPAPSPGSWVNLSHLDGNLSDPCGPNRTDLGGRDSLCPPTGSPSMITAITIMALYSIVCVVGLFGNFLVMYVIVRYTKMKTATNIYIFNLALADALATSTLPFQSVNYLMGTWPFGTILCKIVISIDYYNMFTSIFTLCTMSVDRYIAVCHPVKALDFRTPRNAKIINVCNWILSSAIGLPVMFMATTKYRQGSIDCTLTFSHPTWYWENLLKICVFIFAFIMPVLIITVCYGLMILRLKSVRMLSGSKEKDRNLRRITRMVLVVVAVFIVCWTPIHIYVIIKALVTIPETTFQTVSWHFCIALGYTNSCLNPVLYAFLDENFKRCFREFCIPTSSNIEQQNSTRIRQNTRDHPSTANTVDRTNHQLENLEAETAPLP
Protocol Summary: biochemical
Protocol: MuOPR expression was achieved using the muOPR transformed C43 (DE3) cell strain of E. coli in Terrific Broth medium as reported earlier with 0.4 mM isopropyl β-D-1-thiogalactopyranoside induction at 18 °C for 24 h. […] SEC elution fractions were analyzed by SDS-PAGE and western blotting with Monoclonal Anti-polyHistidine-Peroxidase antibody (Sigma-Aldrich) for protein presence and purity before use. […] Data were analyzed in Excel. […]
pKd: −log10 of the molar value.
Measurement Name: pKd

Item "CC(=O)OCC[N+](C)(C)C" with intact, purified human mu opioid receptor (muOPR) (Homo sapiens, UniProt P35372) - pKd? < 3.00

----------
Assayed System: HIST 89–98 peptide (histamine 1 receptor) (Homo sapiens, UniProt P35367)
Protocol Summary: biochemical
Measurement Name: pKd
Units for pKd: none; it is -log10 of a concentration expressed in mol/L.

Look up pKd for this molecule: "Cc1cc2nc3c(=O)[nH]c(=O)nc-3n(C[C@H](O)[C@H](O)[C@H](O)CO)c2cc1C" 3.40

----------
Assayed System: HIST 177–183 peptide (histamine 1 receptor) (Homo sapiens)
Measurement Name: Kd

May I ask what Kd has been recorded for OC[C@H]1OC(O)[C@H](O)[C@@H](O)[C@@H]1O (stereo partly shown) [GLUC, glucose] ? > 1000 µM

----------
Assayed System: D1DR 175–188 peptide (dopamine receptor D1) (Homo sapiens)
Protocol Summary: biochemical
Structures can show the parent of a compound that is named as a salt.
Measurement Name: Kd (µM)
Numbers only; they are read as µM.

State the recorded Kd for this entry: CN1CC[C@]23c4c5ccc(O)c4O[C@H]2[C@@H](O)C=C[C@H]3[C@H]1C5 [Morph, morphine sulfate] 10

Suppose we examine the molecule "Cc1cc2nc3c(=O)[nH]c(=O)nc-3n(C[C@H](O)[C@H](O)[C@H](O)CO)c2cc1C" ; what Kd value has been reported? 300

// Kd lookup, key: "C=CCN1CC[C@]23c4c5ccc(O)c4O[C@H]2C(=O)CC[C@@]3(O)[C@H]1C5" 20

----------
Assayed System: B2AR 103–113 peptide (β-2-adrenergic receptor) (Homo sapiens)
Measurement Name: Kd (µM)
Please give a number only; it is taken to be in µM.

Find the recorded Kd belonging to C=CCN1CC[C@]23c4c5ccc(O)c4O[C@H]2C(=O)CC[C@@]3(O)[C@H]1C5 [Nalox, naloxone] and report it. 3

----------
Exercise: for every item that follows, state its recorded Kd.
Assayed System: B2AR 97–106 peptide (β-2-adrenergic receptor) (Homo sapiens, UniProt P07550)
Return type: number; implicit unit µM.

Please give the measured Kd for this molecule: "C=CCN1CC[C@]23c4c5ccc(O)c4O[C@H]2C(=O)CC[C@@]3(O)[C@H]1C5" 6

Return reported Kd; argument: "Cc1cc2nc3c(=O)[nH]c(=O)nc-3n(C[C@H](O)[C@H](O)[C@H](O)CO)c2cc1C" 600

----------
# Kd per entry for HIST 77–87 peptide (histamine 1 receptor) (Homo sapiens, UniProt P35367)

Quick check: Kd of "Cc1cc2nc3c(=O)[nH]c(=O)nc-3n(C[C@H](O)[C@H](O)[C@H](O)CO)c2cc1C" ? > 1000 µM

For the molecule shown here, OC[C@H]1OC(O)[C@H](O)[C@@H](O)[C@@H]1O (some centres unmarked) , give the reported Kd. > 1000 µM

----------
I'd appreciate it if you could supply pKd values for the items below.
pKd: −log10 of the molar value.

Short answer please: pKd, MuOPR 111–122 peptide (mu opioid receptor) (Homo sapiens, UniProt P35372), entry OC[C@H]1OC(O)[C@H](O)[C@@H](O)[C@@H]1O (stereo partly shown) [GLUC, glucose] < 3.00

Return pKd measured with MuOPR 111–122 peptide (mu opioid receptor) (Homo sapiens, UniProt P35372) given this compound: Cc1cc2nc3c(=O)[nH]c(=O)nc-3n(C[C@H](O)[C@H](O)[C@H](O)CO)c2cc1C [RIBO, riboflavin] < 3.00

Quick check: pKd on MuOPR 111–122 peptide (mu opioid receptor) (Homo sapiens, UniProt P35372), item NCCc1c[nH]c2ccc(O)cc12 [5HT, 5-hydroxytryptamine] ? 4.00

Value wanted: pKd (MuOPR 111–122 peptide (mu opioid receptor) (Homo sapiens, UniProt P35372)) of entry CC(=O)OCC[N+](C)(C)C [ACh, acetylcholine] < 3.00

----------
Measurement Name: pKd
Value format note: pKd is -log10 of concentration (mol/L); just state the number.

GET /values?readout=pKd&system=INSR 157–166 peptide (insulin receptor) (Homo sapiens)&item= C=CCN1CC[C@]23c4c5ccc(O)c4O[C@H]2C(=O)CC[C@@]3(O)[C@H]1C5 [Nalox, naloxone] 3.70

----------
Measurement Name: pKd
To interpret pKd, take it as minus log10 of a concentration measured in moles per litre.

Request: pKd, test system MuOPR 38–51 peptide (mu opioid receptor) (Homo sapiens, UniProt P35372), entry "Cc1cc2nc3c(=O)[nH]c(=O)nc-3n(C[C@H](O)[C@H](O)[C@H](O)CO)c2cc1C" 4.30

For MuOPR 38–51 peptide (mu opioid receptor) (Homo sapiens, UniProt P35372), provide pKd of NCCc1c[nH]c2ccc(O)cc12 [5HT, 5-hydroxytryptamine] please. 4.00

----------
Kindly supply the reported Kd values for the records listed here.
Report the value in µM with no unit label.

Report Kd for Cc1cc2nc3c(=O)[nH]c(=O)nc-3n(C[C@H](O)[C@H](O)[C@H](O)CO)c2cc1C [RIBO, riboflavin] tested on MuOPR 132–143 peptide (mu opioid receptor) (Homo sapiens). 100

Report Kd for NCCc1c[nH]c2ccc(O)cc12 [5HT, 5-hydroxytryptamine] tested on MuOPR 132–143 peptide (mu opioid receptor) (Homo sapiens). 100

----------
Reported Kd values, MuOPR 121–131 peptide (mu opioid receptor) (Homo sapiens, UniProt P35372).

Which Kd value belongs to "CC(=O)OCC[N+](C)(C)C" ? > 1 mM

Requested read-out: Kd. Entry: "Cc1cc2nc3c(=O)[nH]c(=O)nc-3n(C[C@H](O)[C@H](O)[C@H](O)CO)c2cc1C" > 1 mM

Please report the recorded Kd for NCCc1c[nH]c2ccc(O)cc12 [5HT, 5-hydroxytryptamine] . 0.35 mM

Look at this molecule and give its reported Kd. OC[C@H]1OC(O)[C@H](O)[C@@H](O)[C@@H]1O (stereo partly shown) > 1 mM

----------
Measurement Name: pKd
# log scale: pKd equals minus log10 of the concentration in mol/L

For the record "Cc1cc2nc3c(=O)[nH]c(=O)nc-3n(C[C@H](O)[C@H](O)[C@H](O)CO)c2cc1C" , what value of pKd is listed for HIST 96–107 peptide (histamine 1 receptor) (Homo sapiens, UniProt P35367)? 3.30

----------
In what follows, each item is paired with its Kd for MuOPR 211–226 peptide (mu opioid receptor) (Homo sapiens, UniProt P35372).

Need Kd, item OC[C@H]1OC(O)[C@H](O)[C@@H](O)[C@@H]1O (stereo partly shown) [GLUC, glucose] > 1000 µM

Entry under review: Cc1cc2nc3c(=O)[nH]c(=O)nc-3n(C[C@H](O)[C@H](O)[C@H](O)CO)c2cc1C [RIBO, riboflavin] . Reported Kd? > 1000 µM

Dear colleague, I am looking for the recorded Kd of the following molecule: CC(=O)OCC[N+](C)(C)C [ACh, acetylcholine] > 1000 µM

Fill in the blank: the reported Kd of NCCc1c[nH]c2ccc(O)cc12 [5HT, 5-hydroxytryptamine] is ____. 90 µM

----------
Assayed System: D1DR 89–100 peptide (dopamine receptor D1) (Homo sapiens, UniProt P21728)
Protocol Summary: biochemical
Structures can show the parent of a compound that is named as a salt.
Measurement Name: pKd
The scale used: pKd is minus the common logarithm of the concentration in molar units.

pKd for CN1CC[C@]23c4c5ccc(O)c4O[C@H]2[C@@H](O)C=C[C@H]3[C@H]1C5 [Morph, morphine sulfate] ? 4.70

pKd for C=CCN1CC[C@]23c4c5ccc(O)c4O[C@H]2C(=O)CC[C@@]3(O)[C@H]1C5 [Nalox, naloxone] ? 5.30

Recorded pKd for Cc1cc2nc3c(=O)[nH]c(=O)nc-3n(C[C@H](O)[C@H](O)[C@H](O)CO)c2cc1C [RIBO, riboflavin] , please? 3.22
